// data source = the supplement of paper PMC10567573

Recorded protein stability index values for a group of variants are listed next.
B1: RIPK4 (parent)
chain: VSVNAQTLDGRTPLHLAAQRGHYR

# Variants of: B1
# run description: protein stability index of a GFP-peptide fusion (GPS, HEK-293T) (PSI 1-6); higher = more stable;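 also: lentivirally expressed fusions sorted by FACS into six bins by GFP to DsRed ratio, PSI derived from sequencing read proportions per bin multiplied by bin number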
# condition context: c terminus: a fixed tail appended
Give the figure only, with no unit attached.

Solved cases (2 shown):
record sequence | observation type | result
VSVNAQTLDGRTPLHLAAQRGTYR [H22T] | protein stability index | 3.57
VSVLAQTLDGRTPLHLAAQRGHYR [N4L] | protein stability index | 2.69

// protein stability index lookup, key: VSVNAQTLDGRTPLHLAAGRGHYR [Q19G]
3.53

Now the same for VSVNAQTLDGRTPLHLAAQRGHYY [R24Y]
2.66

Record: VSVNAQTLDGRTPLHLAAQRGNYR [H22N]
3.48

VSVNAQTLDGRTPLHLEAQRGHYR [A17E] , same question.
3.22

Check YSVNAQTLDGRTPLHLAAQRGHYR [V1Y] too.
3.59
